Assignment: determine reported pKd for the given binders.
- STUDY_TARGET: T1, SWSAP1 (hSWS1-SWSAP1, WT);hSWS1 (Homo sapiens;Homo sapiens, UniProt Q6NVH7;Q19AV6 22-250;1-140, |)
- T1 sequence 1: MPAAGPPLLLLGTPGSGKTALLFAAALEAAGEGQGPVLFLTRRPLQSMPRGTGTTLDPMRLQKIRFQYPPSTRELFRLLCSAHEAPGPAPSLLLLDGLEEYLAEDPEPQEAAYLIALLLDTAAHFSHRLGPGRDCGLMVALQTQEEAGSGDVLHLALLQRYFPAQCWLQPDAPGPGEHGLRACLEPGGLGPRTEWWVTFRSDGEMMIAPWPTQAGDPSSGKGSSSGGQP
- T1 sequence 2: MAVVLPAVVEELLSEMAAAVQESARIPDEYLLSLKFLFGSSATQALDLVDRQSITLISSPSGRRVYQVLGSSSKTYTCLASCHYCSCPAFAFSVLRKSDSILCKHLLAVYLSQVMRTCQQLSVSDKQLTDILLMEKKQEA
- ASSAY: fluorescence polarization; no nucleotide; FPA: 5 nM 6-FAM DNA, 37 C, 2 mM nucleotide where stated (buffer not given in material); EMSA: 0.05 uM 6-FAM DNA, 5%/15% native PAGE; RAD51 filaments: 2 mM ATP
- ASSAY_CONDITIONS: protein: recombinant;recombinant; tags: N-terminal 6xHis-TEV, cleaved;none; copies: 1;1; label: 5' 6-FAM
Recall that pKd is obtained by taking minus log10 of the concentration measured in molar.

Q: Consider the binder shown here: ACTGCCCTTACAGCACAGCGGTTTTT (ssDNA) [ss26] What is its recorded pKd?
Ans: 5.00

Q: Please report the recorded pKd for ACTGCCCTTACAGCACAGCGGTTTTTTTTTT (ssDNA) [ss31] .
Ans: 5.24

Q: Report pKd for ACTTACAGCACAGCGGTTTTT (ssDNA) [ss21] please.
Ans: 5.00
